Assay system Human JNK2α2 (Homo sapiens); read-out recorded as log10 IC50.
// stored as log10 of IC50 expressed in nM

Task: Recorded log10 IC50 for COC(=O)c1c(Cc2ccc(S(=O)(=O)N(C)CCO)cc2)c(=O)c2ccc(Cl)cc2n1-c1ccccc1 , please?
Result: 1.79

Task: Report log10 IC50 for COC(=O)c1c(Cc2ccc(S(=O)(=O)N3CCC(O)CC3)cc2)c(=O)c2ccc(F)cc2n1-c1ccccc1 please.
Result: 2.30

Task: Any idea what its log10 IC50 is? The compound is COC(=O)c1c(Cc2ccc(S(=O)(=O)N(C)C)cc2)c(=O)c2ccc(Cl)cc2n1-c1ccccc1
Result: 2.11

Task: Fill in: log10 IC50 of CC(=O)c1c(Cc2ccc(S(=O)(=O)NCC(C)(C)O)cc2)c(=O)c2ccc(Cl)cc2n1-c1ccccc1 is ___
Result: 2.92

Task: Fill blank: measured log10 IC50 of the compound COC(=O)c1c(Cc2ccc(S(=O)(=O)NCCO[Si](C)(C)C(C)(C)C)cc2)c(=O)c2ccc(Cl)cc2n1-c1ccccc1 is ____.
Result: 3.70

Task: Look at this compound and give its reported log10 IC50. COC(=O)c1c(Cc2ccc(S(=O)(=O)N3CCN(C(=O)OC(C)(C)C)CC3)cc2)c(=O)c2ccc(Cl)cc2n1-c1ccccc1
Result: 2.33

Task: Which value of log10 IC50 has been reported for COC(=O)c1c(CN2CCC(N3CCOCC3)CC2)c(=O)c2ccc(F)cc2n1-c1ccccc1 in the records?
Result: 3.32

Task: Query: log10 IC50; subject: COC(=O)c1c(Cc2cnn(C)c2)c(=O)c2ccc(C(F)(F)F)nc2n1-c1ccccc1
Result: 2.75

// provenance: patent US8163906B2
